Below: a set of entries, each annotated with reported koff.
# Assayed Target: T1, HSP70 (human HSP70; the antigen of the binning, humanization and variant binding assays) (human, UniProt P0DMV8 1-641, limits assumed)
# T1 construct: also called hu HSP70
# T1 sequence (P0DMV8 whole entry, change not shown): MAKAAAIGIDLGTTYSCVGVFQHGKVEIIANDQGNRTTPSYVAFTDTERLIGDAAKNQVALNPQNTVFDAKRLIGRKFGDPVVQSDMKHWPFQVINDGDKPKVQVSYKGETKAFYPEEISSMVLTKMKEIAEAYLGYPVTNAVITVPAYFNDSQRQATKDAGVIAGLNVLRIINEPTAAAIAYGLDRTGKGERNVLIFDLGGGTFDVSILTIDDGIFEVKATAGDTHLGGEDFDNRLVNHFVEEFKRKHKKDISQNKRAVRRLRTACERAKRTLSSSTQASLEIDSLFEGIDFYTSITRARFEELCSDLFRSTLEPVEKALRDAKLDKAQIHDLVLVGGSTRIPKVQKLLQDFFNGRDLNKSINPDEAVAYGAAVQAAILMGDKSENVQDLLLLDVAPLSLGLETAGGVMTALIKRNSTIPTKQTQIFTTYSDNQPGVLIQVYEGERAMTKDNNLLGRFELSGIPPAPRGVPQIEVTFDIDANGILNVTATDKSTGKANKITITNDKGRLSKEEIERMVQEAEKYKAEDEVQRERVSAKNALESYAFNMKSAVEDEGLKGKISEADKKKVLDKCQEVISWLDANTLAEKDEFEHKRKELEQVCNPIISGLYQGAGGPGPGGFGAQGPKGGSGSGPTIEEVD
# Test: BLI, antibody on sensor
A number alone suffices; assume s⁻¹.

Look over these answered cases.
1) h77A-11 (antibody, V domains shown) VH: QVQLQQSGPEVKKPGASVKISCKTSGYTFTNYGMNWVRQAPGQGLEWMGWINTYTGEPTYADDFKGRVTMTTDTSTSTAYLELTGLMSDDTAVYFCARYDHAMDYWGQGTTVTVSS VL: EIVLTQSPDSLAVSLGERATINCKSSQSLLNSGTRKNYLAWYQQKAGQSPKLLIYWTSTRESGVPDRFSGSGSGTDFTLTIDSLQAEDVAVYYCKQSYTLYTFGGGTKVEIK
0.000189
2) h77A-2 (antibody, V domains shown) VH: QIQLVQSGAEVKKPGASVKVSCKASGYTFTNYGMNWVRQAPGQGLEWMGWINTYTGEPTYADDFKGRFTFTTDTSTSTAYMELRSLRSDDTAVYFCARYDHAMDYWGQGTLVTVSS VL: DIVMTQSPDSLSVSLGERATINCKSSQSLLNSGTRKNYLAWYQQKPGQPPRLLIYWTSTRESGVPDRFSGSGSGTDFTLTINTLQAEDVAVYYCKQSYTLYTFGQGTKLEIK
0.000308

Prompt line: Query (binder): h77A-22 (antibody, V domains shown) VH: QIQLVQSGPEVKKPGESVKVSCKASGYTFTNYGMNWVRQAPGKGLEWMGWINTYTGEPTYADDFKGRVTITRDTSASTAYMELSSLRSEDTAVYFCARYDHAMDYWGQGTSVTVSS VL: DIVMTQSPDSLSVSLGERATINCKSSQSLLNSGTRKNYLAWYQQKPGQPPRLLIYWTSTRESGVPDRFSGSGSGTDFTLTINTLQAEDVAVYYCKQSYTLYTFGQGTKLEIK ; field requested: koff
Response line: 0.000302
